- TEST_TARGET: Estrogen receptor (Homo sapiens) + Estrogen receptor beta (Homo sapiens) (UniProt P03372+Q92731)
- Sequence (P03372 whole entry, looked up, the tested form may be a part): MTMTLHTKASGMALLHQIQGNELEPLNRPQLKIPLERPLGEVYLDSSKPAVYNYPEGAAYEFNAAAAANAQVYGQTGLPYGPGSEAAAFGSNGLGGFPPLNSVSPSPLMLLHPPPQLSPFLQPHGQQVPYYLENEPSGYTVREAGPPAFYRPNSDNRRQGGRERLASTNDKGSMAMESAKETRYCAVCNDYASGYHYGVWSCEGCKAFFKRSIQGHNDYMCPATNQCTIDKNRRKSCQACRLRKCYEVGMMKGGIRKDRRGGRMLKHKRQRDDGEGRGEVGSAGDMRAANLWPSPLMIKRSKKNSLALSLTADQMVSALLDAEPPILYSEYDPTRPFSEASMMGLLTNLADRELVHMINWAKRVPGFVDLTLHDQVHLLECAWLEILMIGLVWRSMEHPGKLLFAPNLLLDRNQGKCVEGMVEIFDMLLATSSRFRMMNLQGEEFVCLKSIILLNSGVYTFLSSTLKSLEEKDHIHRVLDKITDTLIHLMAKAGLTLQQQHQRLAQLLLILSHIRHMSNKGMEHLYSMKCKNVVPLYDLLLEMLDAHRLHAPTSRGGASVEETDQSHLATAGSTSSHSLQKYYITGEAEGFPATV
- Sequence (Q92731 whole entry, looked up, the tested form may be a part): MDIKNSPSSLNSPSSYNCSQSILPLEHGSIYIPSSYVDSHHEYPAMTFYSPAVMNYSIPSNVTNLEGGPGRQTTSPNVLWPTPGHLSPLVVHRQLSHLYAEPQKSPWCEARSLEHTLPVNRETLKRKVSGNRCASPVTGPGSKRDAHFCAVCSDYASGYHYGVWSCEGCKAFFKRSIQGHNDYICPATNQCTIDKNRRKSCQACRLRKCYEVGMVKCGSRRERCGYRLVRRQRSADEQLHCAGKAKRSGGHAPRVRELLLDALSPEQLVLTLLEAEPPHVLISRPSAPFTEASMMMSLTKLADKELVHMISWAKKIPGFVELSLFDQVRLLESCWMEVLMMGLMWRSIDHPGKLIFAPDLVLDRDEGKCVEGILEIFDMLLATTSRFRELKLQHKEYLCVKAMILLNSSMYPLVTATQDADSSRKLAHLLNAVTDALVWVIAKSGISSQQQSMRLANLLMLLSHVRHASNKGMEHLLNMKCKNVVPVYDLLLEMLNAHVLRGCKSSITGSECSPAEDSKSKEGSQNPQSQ
- ASSAY_NAME: OT_ER_ERaERb_1440: Odyssey Thera (OT) 24-hour HEK293T Protein-Complementation Assay for Estrogen Receptor-alpha/-beta Homodimer (AID 2283356);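 further: heteromer of ER alpha and ER beta binding domains; hits raise reporter fluorescence and both agonists and antagonists give an increase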
Results filed as inconclusive are left out. The source made the active and inactive calls. How the source made its calls: active means hit-call score of the fitted dose curve at least 0.9, where 1 is the maximum; inconclusive means response in the unintended direction; inactive means score below 0.9.
MEASURE: AC50

// solved cases for AC50 follow
CCC[Si](OC)(OC)OC	inactive
CCCC=C(C=O)CC	inactive
O=S(=O)(O)c1ccc(N=Nc2c(O)ccc3ccccc23)cc1	inactive
CCCCCC(=O)OCC	inactive
CC(C)COC(=O)CC(C(=O)OCC(C)C)S(=O)(=O)O (configuration not stated)	inactive

Exercise: Which AC50 is listed for CC1=CCC2CC1C2(C)C (configuration not stated) ?
Key: inactive

Exercise: Also O=C(O)C1CCC(C(=O)O)CC1 (configuration not stated) ?
Key: inactive

Exercise: Also Cc1ccc([N+](=O)[O-])cc1N ?
Key: inactive

Exercise: Also CCCCC(=O)O ?
Key: inactive

Exercise: Also CCCCCCCCCC(C)=O ?
Key: inactive

Exercise: Also CCCCCCCCCCCCc1ccc(O)cc1 ?
Key: 1.14 µM (active)

Exercise: Also CCN1CN(CC)CN(CC)C1 ?
Key: inactive

Exercise: Also CCOC(=O)C1=NOC(c2ccccc2)(c2ccccc2)C1 ?
Key: inactive

Exercise: Also Oc1ccccc1Cc1ccccc1O ?
Key: 53.4 µM (active)

Exercise: Also c1ccc(Nc2cccc3ccccc23)cc1 ?
Key: 47.1 µM (active)

Exercise: Also CN(C)c1ccc2nc3ccc(=[N+](C)C)cc-3sc2c1 ?
Key: 12 µM (active)

Exercise: Also CCCCCCCCCCCCCCCCCCOS(=O)(=O)O ?
Key: 23.7 µM (active)

Exercise: Also CCCCOCCOC(=O)COc1ccc(Cl)cc1Cl ?
Key: inactive

Exercise: Also C1CNCCN1 ?
Key: inactive

Exercise: Also CCCCCCCCCCCCCC(=O)OC(C)C ?
Key: inactive

Exercise: Also CC1(C)[C@@H]2CC[C@@]1(C)C(=O)C2 ?
Key: inactive

Exercise: Also COc1ccc(-c2coc3cc(O)cc(O)c3c2=O)cc1 ?
Key: 5.37 µM (active)

Exercise: Also CC(=O)OC(C)c1ccccc1 (configuration not stated) ?
Key: inactive

Exercise: Also CCCCc1ccc(Cl)cc1 ?
Key: inactive

Exercise: Also CC(=O)OCc1ccccc1 ?
Key: inactive

Exercise: Also CO[Si](C)(C)OC ?
Key: inactive

Exercise: Also CCOC(=O)c1ccc(C)cc1 ?
Key: inactive
